- System: MEK6
- Construct: gene MAP2K6
- test.context: concentration: 1 μM, replicates: in singlicate; n = 1;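 also: KINOMEscan kinase panel screen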
Entries and their %Inh values follow.

compound	%Inh (%)
O=C(Nc1n[nH]c2nc(-c3ccco3)c(Br)cc12)c1ccc(CN2CCCC2)cc1.O=C(O)[C@H](O)[C@@H](O)C(=O)O [SB-742352]	0
Nc1n[nH]c2nnc(-c3ccccc3)cc12 [SB-517389]	0
O=C(NCCCN1CCCC1=O)c1cnc(NCc2cc(Cl)ccc2Cl)nc1NC1CCNCC1	0
COc1cc2c(Nc3cccc(NC(=O)c4ccccc4)c3)ncnc2cc1OCCCN1CCOCC1 [GSK223810]	0
Fc1ccc(-c2ncn(CCCNCc3ccccc3)c2-c2ccncc2)cc1	17
Oc1ccc2ncnc(Nc3ccc(OCc4ccccc4)cc3)c2c1 [GI262866]	0
O=C(CCO)NCCn1ccc2ncnc(Nc3ccc(Oc4cccc(C(F)(F)F)c4)c(Cl)c3)c21	0
O=C(Nc1ccccc1)Nc1ccc(Oc2ccc3nccn3n2)cc1	0
Fc1ccc(Nc2nccc(-c3c(-c4ccc(Cl)cc4)nn4ncccc34)n2)cc1F [GW829058]	13
Nc1nccc2scc(-c3ccc4c(c3)CCN4C(=O)Cc3cc(F)ccc3F)c12 [GSK2587663]	0

* * *

Reported %Inh values for a set of compounds
- Test system: PIM1
- test.context: concentration: 1 μM, replicates: in singlicate; n = 1

compound	%Inh / %
CS(=O)(=O)CCNCc1ccc(-c2ccc3ncnc(Nc4ccc(OCc5ccccc5)c(Cl)c4)c3c2)o1.Cl [GW574783]	0
O=C(Nc1ccccc1F)NC1CCN(c2ccnc(Nc3ccc(F)cc3)n2)C1 (stereo not drawn) [GSK1379722]	0
Nc1nccc2scc(-c3ccc4c(c3)CCN4C(=O)Cc3cc(F)ccc3F)c12 [GSK2587663]	0

* * *

- System: NEK2
- test.context: concentration: 1 μM, replicates: in singlicate; n = 1
Lab note: cut-off is 3%. Strictly less in %Inh is condition met. Exactly 3% or more is condition not met.

compound	class
COc1cc2ncnc(Nc3ccc(OCc4ccccc4Br)c(Cl)c3)c2cc1OC.Cl [GI261590]	condition met
Cl.c1ccc(Cn2ncc3cc(Nc4ncnc5ccccc45)ccc32)cc1 [GW273749]	condition not met
O=c1cc(N2CCOCC2)nc2n(Cc3cccc(Cl)c3)ccn12 [GSK2296823]	condition not met
Cn1ccc2ncnc(Nc3ccc(Oc4cccc(Cl)c4)c(Cl)c3)c21	condition met
Cc1ccc(NC(=O)c2cccc(C#N)c2)cc1-c1ccc(C(=O)Nc2ccncc2)cc1 [GSK1398463]	condition not met
CNc1nccc(-c2c(-c3ccc(F)cc3)ncn2CCCN2CCOCC2)n1 [SB-222516]	condition met
Clc1cccc(-c2nc(Nc3ccncc3)c3ccccc3n2)c1 [GW873004]	condition met
O=C(Nc1n[nH]c2nc(-c3ccco3)c(Br)cc12)c1ccc(CN2CCCC2)cc1.O=C(O)[C@H](O)[C@@H](O)C(=O)O [SB-742352]	condition not met
FC(F)(F)c1cc(Nc2nccc(-c3c(-c4ccc(Cl)cc4)nn4ncccc34)n2)ccc1Cl [GW829351]	condition met
CCc1nc(-c2cccc(N(C)S(=O)(=O)c3ccccc3)c2)c(-c2ccnc(Nc3ccc(N4CCN(C(C)=O)CC4)nc3)n2)s1 [GSK1645895]	condition not met
Cn1cc(-c2ccc3c(c2)CCN3C(=O)Cc2cccc(C(F)(F)F)c2)c2c(N)ncnc21 [GSK2606414]	condition not met
CC(C)(C)OC(=O)NC1CCCN(c2cc(-c3ccc4c(N)n[nH]c4c3)nc(N)n2)C1 (stereo not shown) [GSK2286096]	condition not met
Nc1n[nH]c2nnc(-c3ccccc3)cc12 [SB-517389]	condition not met
COc1ccc(-c2oc3ncnc(N)c3c2-c2ccc(OC)cc2)cc1 [SB-589132]	condition not met
COc1ccc(Nc2nccc(N3CCC(NC(=O)c4cccc(NC(C)=O)c4)C3)n2)cc1 (stereo not shown) [GSK1379732]	condition not met
Cl.Fc1ccccc1COc1ccc(Nc2ncnc3ccc(-c4nnc(C(F)(F)F)o4)cc23)cc1Cl [GW424170]	condition met
CN1CCC(n2cnc(-c3ccc(F)cc3)c2-c2ccnc(NC3CCNCC3)n2)CC1 [SB-229482]	condition met
Fc1cccc(COc2ccc(Nc3ncnc4cc[nH]c34)cc2Cl)c1	condition not met
Cl.c1ccc(Cn2ccc3cc(Nc4ncnc5ccccc45)ccc32)cc1 [GW275568]	condition not met
CC(C)(C)c1ccc(-n2cnc3c(N)ncnc32)cc1 [SKF-97263]	condition met
CCC(CC)(CC)n1cnc2c(N)ncnc21 [SKF-97620]	condition met

* * *

Measured %Inh by item
- Test system: PIK3CB
- test.context: concentration: 1 μM, replicates: in singlicate; n = 1

compound	system.tested	unit.tag	%Inh
O=C(Nc1n[nH]c2nc(-c3ccco3)c(Br)cc12)c1ccc(CN2CCCC2)cc1.O=C(O)[C@H](O)[C@@H](O)C(=O)O	PIK3CB	%	0
CCc1nc(-c2cccc(N(C)S(=O)(=O)c3ccccc3)c2)c(-c2ccnc(Nc3ccc(N4CCN(C(C)=O)CC4)nc3)n2)s1	PIK3CB	%	0
CC(C)(C)OC(=O)NC1CCCN(c2cc(-c3ccc4c(N)n[nH]c4c3)nc(N)n2)C1 (stereo not drawn)	PIK3CB	%	0
O=C(Nc1ccccc1)Nc1ccc(Oc2ccc3nccn3n2)cc1	PIK3CB	%	0
Cl.c1ccc(Cn2ncc3cc(Nc4ncnc5ccccc45)ccc32)cc1	PIK3CB	%	7
CSc1ccc(NC2=C(c3ccccc3Cl)C(=O)NC2=O)cc1	PIK3CB	%	3
CN1c2ccc(-c3ccc(C(=O)NCCO)cc3)cc2-c2[nH]ncc2S1(=O)=O	PIK3CB	%	0
Cc1ccc(C)c(NC(=O)NCCNc2ccnc(Nc3ccc(F)cc3)n2)c1	PIK3CB	%	0
CC(C)(C)c1ccc(-n2cnc3c(N)ncnc32)cc1	PIK3CB	%	0

* * *

- Tested on: STK36
- test.context: concentration: 1 μM, replicates: in singlicate; n = 1
measured.property: %Inh (%)

compound	measured.property	recorded.number
FC(F)(F)c1cc(Nc2nccc(-c3c(-c4ccc(Cl)cc4)nn4ncccc34)n2)ccc1Cl [GW829351]	%Inh	21
O=C(c1ccc(-c2cc(-c3c[nH]nc3-c3ccccn3)ccn2)cc1)N1CCCC1 [GW792479]	%Inh	0
Cn1ccc2ncnc(Oc3ccc(NC(=O)Nc4cccnc4)c(Cl)c3)c21	%Inh	13
Nc1n[nH]c2nnc(-c3ccccc3)cc12 [SB-517389]	%Inh	0
CS(=O)(=O)CCNCc1ccc(-c2ccc3ncnc(Nc4ccc(OCc5ccccc5)c(Cl)c4)c3c2)o1.Cl [GW574783]	%Inh	0
Fc1cccc(COc2ccc(Nc3ncnc4sc(-c5ccc[nH]5)cc34)cc2Cl)c1 [GW707818]	%Inh	0

* * *

- Test system: DDR1
- test.context: concentration: 1 μM, replicates: in singlicate; n = 1
Reported values of %Inh for individual entries
measured.property: %Inh (%)

given.smiles	system.tested	recorded.number
CS(=O)(=O)CCNCc1ccc(-c2ccc3ncnc(Nc4ccc(OCc5ccccc5)c(Cl)c4)c3c2)o1.Cl	DDR1	10
FC(F)(F)c1ccc(-c2nn3ncccc3c2-c2ccnc(Nc3cccc(C(F)(F)F)c3)n2)cc1	DDR1	86
O=C(Nc1ccccc1)Nc1ccc(Oc2ccc3nccn3n2)cc1	DDR1	98.6
Nc1nccc2scc(-c3ccc4c(c3)CCN4C(=O)Cc3cc(F)ccc3F)c12	DDR1	10
Cc1cc(N2CCC(NS(=O)(=O)c3ccc(F)cc3)CC2)nc(Nc2cccc(C#N)c2)n1.O=C(O)C(F)(F)F	DDR1	0
Nc1nc(-c2ccc3c(N)n[nH]c3c2)cc(N2CCCCC2)n1	DDR1	0
COc1ccc(NC(=O)Nc2ccc(C)c(-c3ccc(C(=O)Nc4ccncc4)cc3)c2)cc1	DDR1	88
COc1ccc(NC(=O)c2ccc(-c3cc(-c4nnc(C)o4)ccc3C)cc2)cc1	DDR1	13
CC(=O)Nc1n[nH]c2ncc(-c3ccccc3)cc12	DDR1	0
Clc1cc(Nc2ncnc3cc[nH]c23)ccc1OCc1ccccn1	DDR1	14
Cc1ccc(O)cc1Nc1cc(C(F)(F)F)nc2ccc(-c3ccncc3)cc12	DDR1	40
CCn1c(-c2ccncc2)nc2cnccc21	DDR1	0

* * *

- Test system: PRKD1
- test.context: concentration: 1 μM, replicates: in singlicate; n = 1

molecule	%Inh (%)
CSc1nn2c(=O)cc(N3CCOCC3)nc2n1Cc1cccc(Cl)c1Cl [GSK2347225]	0
Cc1cccc(-c2nc(Nc3ccc4[nH]nnc4c3)c3ccccc3n2)n1 [GW867587]	94.2
Fc1ccc(-c2ncn(CCCNCc3ccccc3)c2-c2ccncc2)cc1	20
Nc1nc(-c2ccccn2)c(-c2ccnc3ccccc23)s1 [GW548057]	36
Cc1ccc(NC(=O)c2cccc(C#N)c2)cc1-c1ccc(C(=O)Nc2ccncc2)cc1 [GSK1398463]	0
Cn1cc(-c2ccc3c(c2)CCN3C(=O)Cc2cccc(C(F)(F)F)c2)c2c(N)ncnc21 [GSK2606414]	0
COc1ccc(NC(=O)Nc2ccc(C)c(-c3ccc(C(=O)Nc4ccncc4)cc3)c2)cc1 [GSK1398475]	0
Nc1nc(-c2ccc3c(N)n[nH]c3c2)cc(N2CCC[C@@H](C(=O)Nc3ccccc3)C2)n1.O=C(O)C(F)(F)F.O=C(O)C(F)(F)F [GSK2288359]	0
Cn1ccc2ncnc(Oc3ccc(NC(=O)Nc4cccnc4)c(Cl)c3)c21	0
CCCc1ccc(S(=O)(=O)NC2CCN(c3ccnc(Nc4ccc(OC)cc4)n3)C2)cc1 (centres unmarked) [GSK1379737]	0
N#Cc1ccc(Oc2ccc(Nc3ncnc4cc[nH]c34)cc2Cl)cc1	0
OCCOCCn1ccc2ncnc(Nc3ccc(Oc4cccc(Cl)c4)c(Cl)c3)c21	0
CCC(CC)(CC)n1cnc2c(N)ncnc21 [SKF-97620]	0
Clc1cccc(-c2nc(Nc3ccncc3)c3ccccc3n2)c1 [GW873004]	47
Nc1nc(-c2cccnc2)c(-c2ccnc3ccccc23)s1 [GW684083]	24
CS(=O)(=O)CCNCc1ccc(-c2ccc3ncnc(Nc4ccc(OCc5ccccc5)c(Cl)c4)c3c2)o1.Cl [GW574783]	4
COC(=O)c1c(-c2ccccc2)c2cc(Cl)ccc2c(=O)n1Cc1ccc(S(C)(=O)=O)cc1	33
